Source listed as the RNAGym collection of RNA variant scans (doi:10.1093/molbev/msab373).

B1: Azoarcus group I ribozyme (parent)
chain: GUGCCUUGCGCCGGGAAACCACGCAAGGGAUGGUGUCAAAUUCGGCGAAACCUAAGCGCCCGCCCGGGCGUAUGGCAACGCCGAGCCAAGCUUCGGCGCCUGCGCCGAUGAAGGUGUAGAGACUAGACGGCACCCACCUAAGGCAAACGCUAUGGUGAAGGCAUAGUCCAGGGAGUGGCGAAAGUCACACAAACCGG

- Variants of: B1
- Assay Text: reverse-splicing fitness (ratio to wild type); higher = more active; in vitro selection; Mg2+ level not given

>  <Variant Identifier>
C82A A120C A145U C169G

>  <reverse-splicing fitness>
0.00932

$$$$
>  <Variant Identifier>
A120U A145C C150U C169U

>  <reverse-splicing fitness>
0.0928

$$$$
>  <Variant Identifier>
C82A A111C A120G A145G C169G U176C

>  <reverse-splicing fitness>
0.0266

$$$$
>  <Variant Identifier>
C82U A111U A145U C150A C169G U176C

>  <reverse-splicing fitness>
0.0121

$$$$
>  <Variant Identifier>
C82U A120U C150A C169U

>  <reverse-splicing fitness>
0.00341

$$$$
>  <Variant Identifier>
C82A A111C A120U A145U C150G C169G U176A

>  <reverse-splicing fitness>
0.00314

$$$$
>  <Variant Identifier>
C82G A111C A120G A145U C150U C169A U176A

>  <reverse-splicing fitness>
0.0109

$$$$
>  <Variant Identifier>
C82U A111C A145G C150U U176A

>  <reverse-splicing fitness>
0.0576

$$$$
>  <Variant Identifier>
C82U A111G A120U A145G C150A C169U U176A

>  <reverse-splicing fitness>
0.00427

$$$$
>  <Variant Identifier>
C82U A111G A120U A145G C150A C169G U176C

>  <reverse-splicing fitness>
0.00574

$$$$
>  <Variant Identifier>
C82G A111C A145G C150U C169G U176G

>  <reverse-splicing fitness>
0.00611

$$$$
>  <Variant Identifier>
C82G A111C A120U A145C C150A C169A

>  <reverse-splicing fitness>
0.00203

$$$$
>  <Variant Identifier>
C82A A111G A120C A145C C150A C169G U176G

>  <reverse-splicing fitness>
0.00763

$$$$
>  <Variant Identifier>
C82A A111C A145U C150A U176A

>  <reverse-splicing fitness>
0.0127

$$$$
>  <Variant Identifier>
A111G A120U A145C C150G C169A

>  <reverse-splicing fitness>
0.00293

$$$$
>  <Variant Identifier>
C82G A111G A145G C150A C169G U176G

>  <reverse-splicing fitness>
0.006

$$$$
>  <Variant Identifier>
C82A A111C C150G C169U

>  <reverse-splicing fitness>
0.00907

$$$$
>  <Variant Identifier>
C82A A111U A120U A145U C150A C169G U176A

>  <reverse-splicing fitness>
0.00333

$$$$
>  <Variant Identifier>
C82A A111C A120G A145G C150U C169U U176G

>  <reverse-splicing fitness>
0.00525

$$$$
>  <Variant Identifier>
C82U A111G A120G C150G C169A U176G

>  <reverse-splicing fitness>
0.00628

$$$$
>  <Variant Identifier>
C82U A120C C169G U176A

>  <reverse-splicing fitness>
0.0123

$$$$
>  <Variant Identifier>
C82G A111C A120G A145C C150U C169A

>  <reverse-splicing fitness>
0.00816

$$$$
>  <Variant Identifier>
C82U A111G C150A C169A U176A

>  <reverse-splicing fitness>
0.0183

$$$$
>  <Variant Identifier>
C82A A111U A120G A145U C150A C169A

>  <reverse-splicing fitness>
0.00942

$$$$
>  <Variant Identifier>
C82G A120C A145U C150A C169U U176A

>  <reverse-splicing fitness>
0.0151

$$$$
>  <Variant Identifier>
C82G A120G C150U U176A

>  <reverse-splicing fitness>
0.0117

$$$$
>  <Variant Identifier>
C82G A111G A120G A145G C150U C169U U176C

>  <reverse-splicing fitness>
0.0177

$$$$
>  <Variant Identifier>
C82A A111U A120U A145C C150U C169G U176C

>  <reverse-splicing fitness>
0.00274

$$$$
>  <Variant Identifier>
C82A A111C A145G C150G C169G U176C

>  <reverse-splicing fitness>
0.0128

$$$$
>  <Variant Identifier>
A111G A120G C169G

>  <reverse-splicing fitness>
0.321

$$$$
>  <Variant Identifier>
C82A A120G C150G U176C

>  <reverse-splicing fitness>
0.00829

$$$$
>  <Variant Identifier>
C82A A111U A145G C150U C169A U176G

>  <reverse-splicing fitness>
0.00694

$$$$
>  <Variant Identifier>
A111U A120U C150G U176C

>  <reverse-splicing fitness>
0.0189

$$$$
>  <Variant Identifier>
C82A A145G C169U U176A

>  <reverse-splicing fitness>
0.0146

$$$$
>  <Variant Identifier>
C82G A111U A120U A145G C169G U176G

>  <reverse-splicing fitness>
0.00172

$$$$
>  <Variant Identifier>
C82G A111G A120G C150G C169G

>  <reverse-splicing fitness>
0.00788

$$$$
>  <Variant Identifier>
A111U A120C A145U C169G

>  <reverse-splicing fitness>
0.00837

$$$$
>  <Variant Identifier>
C82A A111G A120U A145C C150U C169A U176A

>  <reverse-splicing fitness>
0.00228

$$$$
>  <Variant Identifier>
C82G A111U C150A C169U

>  <reverse-splicing fitness>
0.0113

$$$$
>  <Variant Identifier>
A111C A145C C150A C169G U176C

>  <reverse-splicing fitness>
0.0189

$$$$
>  <Variant Identifier>
A111U A120U A145C C150A C169A U176A

>  <reverse-splicing fitness>
0.00272

$$$$
>  <Variant Identifier>
A111U A120G A145G C150U C169A U176C

>  <reverse-splicing fitness>
0.0274

$$$$
>  <Variant Identifier>
C82U A111U A120G C150A C169G U176A

>  <reverse-splicing fitness>
0.0221

$$$$
>  <Variant Identifier>
A145U C150G C169A

>  <reverse-splicing fitness>
0.0224

$$$$
>  <Variant Identifier>
C82U A111C A145C C150G C169A

>  <reverse-splicing fitness>
0.00742

$$$$
>  <Variant Identifier>
C82A A111U C150G C169A U176C

>  <reverse-splicing fitness>
0.0105

$$$$
>  <Variant Identifier>
A145U C169G U176C

>  <reverse-splicing fitness>
0.133

$$$$
>  <Variant Identifier>
C82A A111C A120C A145U C169U U176A

>  <reverse-splicing fitness>
0.0155

$$$$
>  <Variant Identifier>
C82G A145G C169A

>  <reverse-splicing fitness>
0.00951

$$$$
>  <Variant Identifier>
C82A A111U A120C C169G U176A

>  <reverse-splicing fitness>
0.0231

$$$$
>  <Variant Identifier>
C82G A120C A145C C150U U176G

>  <reverse-splicing fitness>
0.00925

$$$$
>  <Variant Identifier>
C82U A111U A120C A145C C150U C169U

>  <reverse-splicing fitness>
0.00899

$$$$
>  <Variant Identifier>
C82G A111C A120U A145U C150A C169G U176G

>  <reverse-splicing fitness>
0.00223

$$$$
>  <Variant Identifier>
C82U A111U A120G A145G C150A C169G U176A

>  <reverse-splicing fitness>
0.0152

$$$$
>  <Variant Identifier>
A111C A145G C150G C169A U176A

>  <reverse-splicing fitness>
0.0119

$$$$
>  <Variant Identifier>
C82U A111U A120C A145U C150G U176G

>  <reverse-splicing fitness>
0.00331

$$$$
>  <Variant Identifier>
C82A A111C A120C A145G C169U U176C

>  <reverse-splicing fitness>
0.0138

$$$$
>  <Variant Identifier>
A120C A145U C169A U176G

>  <reverse-splicing fitness>
0.00466

$$$$
>  <Variant Identifier>
C82G A111U A120U A145U C150A C169G U176C

>  <reverse-splicing fitness>
0.003

$$$$
>  <Variant Identifier>
A111C A145U C150U U176A

>  <reverse-splicing fitness>
0.365

$$$$
>  <Variant Identifier>
C82G A111C A120G A145C U176A

>  <reverse-splicing fitness>
0.0152

$$$$
>  <Variant Identifier>
A111G A120G A145C C169U U176C

>  <reverse-splicing fitness>
0.0829

$$$$
>  <Variant Identifier>
C82G A111G A120G C150G C169U U176C

>  <reverse-splicing fitness>
0.0158

$$$$
>  <Variant Identifier>
C82U A111U A120U A145U C150G

>  <reverse-splicing fitness>
0.00727

$$$$
>  <Variant Identifier>
C82A A120U C150A C169G U176C

>  <reverse-splicing fitness>
0.0032

$$$$
>  <Variant Identifier>
A111C A145G C150A C169A

>  <reverse-splicing fitness>
0.0128

$$$$
>  <Variant Identifier>
A111C A120U A145U C150U U176G

>  <reverse-splicing fitness>
0.0348

$$$$
>  <Variant Identifier>
A111U A120C A145G C150A C169U

>  <reverse-splicing fitness>
0.034

$$$$
>  <Variant Identifier>
C82U A111C A120G A145U C150G U176C

>  <reverse-splicing fitness>
0.0141

$$$$
>  <Variant Identifier>
C82G A120C A145C C150A C169U

>  <reverse-splicing fitness>
0.00799

$$$$
>  <Variant Identifier>
C82A A111G A120C A145U C150U U176G

>  <reverse-splicing fitness>
0.00709

$$$$
>  <Variant Identifier>
C82U A111C A120U A145G C150A C169G

>  <reverse-splicing fitness>
0.00517

$$$$
>  <Variant Identifier>
C82G A111G A145U C150A C169A

>  <reverse-splicing fitness>
0.00827

$$$$
>  <Variant Identifier>
C82A A111C A120G A145C U176A

>  <reverse-splicing fitness>
0.0123

$$$$
>  <Variant Identifier>
C82U A111G A145U C150U C169U U176C

>  <reverse-splicing fitness>
0.0118

$$$$
>  <Variant Identifier>
C82U A111G A145C C150G C169G U176C

>  <reverse-splicing fitness>
0.00634

$$$$
>  <Variant Identifier>
C82U A111G A120C C150A U176C

>  <reverse-splicing fitness>
0.0187

$$$$
>  <Variant Identifier>
C82U A111G A120G A145C C169U U176G

>  <reverse-splicing fitness>
0.00353

$$$$
>  <Variant Identifier>
C82G A111G A145G C150G

>  <reverse-splicing fitness>
0.0374

$$$$
>  <Variant Identifier>
C82A A120U A145U C150A C169A

>  <reverse-splicing fitness>
0.00213

$$$$
>  <Variant Identifier>
C82G A111C A120G A145U C150A U176C

>  <reverse-splicing fitness>
0.0172

$$$$
>  <Variant Identifier>
C82U A111U A120C C150A U176G

>  <reverse-splicing fitness>
0.0056

$$$$
>  <Variant Identifier>
C82U A120U A145C C150G C169G U176G

>  <reverse-splicing fitness>
0.00188

$$$$
>  <Variant Identifier>
C82U A111G A120U A145U C150U C169U

>  <reverse-splicing fitness>
0.00372

$$$$
>  <Variant Identifier>
C82G A111G A145U C150U C169G

>  <reverse-splicing fitness>
0.00988

$$$$
>  <Variant Identifier>
A111G A120U A145G C169U U176G

>  <reverse-splicing fitness>
0.0035

$$$$
>  <Variant Identifier>
C82A A111G A120G

>  <reverse-splicing fitness>
0.0164

$$$$
>  <Variant Identifier>
C82U A120C A145C C150U C169G U176G

>  <reverse-splicing fitness>
0.00398

$$$$
>  <Variant Identifier>
C82U A111U A120G A145G

>  <reverse-splicing fitness>
0.0162

$$$$
>  <Variant Identifier>
C82U A111U A145G C150A C169G U176C

>  <reverse-splicing fitness>
0.0254

$$$$
>  <Variant Identifier>
C82U A111C A120G A145U C150U C169G

>  <reverse-splicing fitness>
0.00846

$$$$
